Tested on: carbapenemase producing K. pneumoniae
Experiment: MIC by broth micro-dilution (CLSI), carbapenemase producing K. pneumoniae
Assay type: cell-based, Klebsiella pneumoniae
Conditions: Klebsiella pneumoniae, ATCCBAA1705, KPC-2 K. pneumoniae ATCC BAA-1705; read-out: MIC
Each entry below lists one item and its recorded MIC value.
The response must be a number in µg/mL with no trailing unit.

In [3]: df
Out[3]:
                            compound_string                                    tgt  property_name  value_unit  value_measured
0  C[C@@H](NC(=O)Cn1cnnn1)[C@H]1C(=O)N2C(C(=O)O)=C(S[C@@H]3CN[C@H](C(=O)N4C[C@@H](N)C[C@H]4CF)C3)[C@H](C)[C@H]12  carbapenemase producing K. pneumoniae            MIC       µg/mL               2
1  C[C@@H](NC(=O)C(F)F)[C@H]1C(=O)N2C(C(=O)O)=C(S[C@@H]3CN[C@@H](C(=O)N(C)C)C3)[C@H](C)[C@H]12  carbapenemase producing K. pneumoniae            MIC       µg/mL               4

Q) // lookup MIC | system=carbapenemase producing K. pneumoniae | key= C[C@@H](NC(=O)C(F)F)[C@H]1C(=O)N2C(C(=O)O)=C(S[C@@H]3CN[C@H](C(=O)NCCO)C3)[C@H](C)[C@H]12
A) 4
